The measured values listed here are drawn from patent US20260248772A1.

Reported activity at 15 min, 10 µM values for the following compounds.
Target: CYP2C19 (Homo sapiens)
Sequence (P33261 whole entry): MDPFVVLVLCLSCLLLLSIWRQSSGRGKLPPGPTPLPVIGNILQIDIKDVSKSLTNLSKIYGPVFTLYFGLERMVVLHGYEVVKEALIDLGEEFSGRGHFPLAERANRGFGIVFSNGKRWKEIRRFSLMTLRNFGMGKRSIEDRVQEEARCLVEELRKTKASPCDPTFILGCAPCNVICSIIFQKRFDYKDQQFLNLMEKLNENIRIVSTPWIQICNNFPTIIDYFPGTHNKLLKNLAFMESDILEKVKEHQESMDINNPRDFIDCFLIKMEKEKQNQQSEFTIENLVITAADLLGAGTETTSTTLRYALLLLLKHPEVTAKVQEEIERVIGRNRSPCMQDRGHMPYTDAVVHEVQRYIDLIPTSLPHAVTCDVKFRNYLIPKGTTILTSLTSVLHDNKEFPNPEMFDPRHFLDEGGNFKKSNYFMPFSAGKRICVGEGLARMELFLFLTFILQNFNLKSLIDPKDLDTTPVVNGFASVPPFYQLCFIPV
Assay: in vitro
Details: human liver microsomes, pH 7.4, probe S-mephenytoin 100 μM (in five-substrate cocktail)
The response must be a number in % with no trailing unit.

{"compound": "N=S(=O)(/C=C/c1cccnc1)c1ccccc1Cl (stereo not drawn) [Compound 1-12]", "system tested": "CYP2C19 (Homo sapiens)", "unit descriptor": "%", "activity at 15 min, 10 µM": 68.2}
{"compound": "COc1ccc(S(=N)(=O)/C=C/c2ncccc2Cl)cc1 (stereo not drawn) [Compound 1-10]", "system tested": "CYP2C19 (Homo sapiens)", "unit descriptor": "%", "activity at 15 min, 10 µM": 6}
{"compound": "COc1ccccc1S(=N)(=O)/C=C/c1ncccc1Cl (stereo not drawn) [Compound 1-8]", "system tested": "CYP2C19 (Homo sapiens)", "unit descriptor": "%", "activity at 15 min, 10 µM": 24.4}
{"compound": "O=S(=O)(/C=C/c1cccnc1Cl)c1ccccc1Cl [reference compound]", "system tested": "CYP2C19 (Homo sapiens)", "unit descriptor": "%", "activity at 15 min, 10 µM": 28.3}

Asked: Item COc1ccc(S(=N)(=O)/C=C/c2ccccn2)cc1 (stereo not drawn) [Compound 1-2] has what recorded activity at 15 min, 10 µM?
Given back: 70.4

Asked: Item O=S(=O)(/C=C/c1cccnc1)c1ccccc1Cl [reference compound] has what recorded activity at 15 min, 10 µM?
Given back: 33.4
